Tested on: F1 hybrid maize plants
Test: efficacy field trial for quizalofop-P tolerance and clethodim sensitivity
Assay type: in vivo
Settings: scale 0 to 100; 0.32 lb ai/acre at VE-V2, V4, V8; with CTP unless label says no CTP
measurement-type: average injury rating, V4 Growth Stage, 4x Quizalofop
Reply: number alone, nothing else.

molecule	endpoint-result
MON-HT7: engineered oxygenase protein, amino acid sequence SEQ ID NO:34 (protein) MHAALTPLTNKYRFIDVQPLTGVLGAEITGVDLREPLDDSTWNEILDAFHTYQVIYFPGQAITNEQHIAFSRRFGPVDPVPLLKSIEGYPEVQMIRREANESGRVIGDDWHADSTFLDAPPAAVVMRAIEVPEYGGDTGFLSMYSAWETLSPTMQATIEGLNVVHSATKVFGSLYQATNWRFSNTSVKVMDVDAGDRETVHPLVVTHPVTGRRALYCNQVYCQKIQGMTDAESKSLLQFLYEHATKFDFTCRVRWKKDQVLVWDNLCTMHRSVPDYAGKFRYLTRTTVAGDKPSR	0.8

Short answer for MON-HT4: engineered oxygenase protein, amino acid sequence SEQ ID NO:25 (protein) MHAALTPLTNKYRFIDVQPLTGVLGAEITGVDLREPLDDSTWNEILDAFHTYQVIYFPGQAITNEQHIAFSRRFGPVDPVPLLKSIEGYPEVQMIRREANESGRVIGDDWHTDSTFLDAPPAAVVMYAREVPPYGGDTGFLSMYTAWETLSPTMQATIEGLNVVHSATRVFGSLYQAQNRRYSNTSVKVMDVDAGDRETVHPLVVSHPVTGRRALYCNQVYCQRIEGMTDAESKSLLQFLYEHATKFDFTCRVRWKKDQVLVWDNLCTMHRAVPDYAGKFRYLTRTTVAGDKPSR : average injury rating, V4 Growth Stage, 4x Quizalofop was 2.8
